# Test system: H69AR cells
# ASSAY NOTES: Cytotoxicity in panel of MDR cell lines, H69AR (72 h and 144 h)
# Type: cell-based, human
# CONDITION: Homo sapiens, 144 h incubation, read-out: H69AR IC50 144 h
Field: IC50. Provide a value for each of the molecules that follow.
One number for each entry, in pM.

[[record]]
structure_string = "[2H]c1cc(C[C@@H](CC(C)(C)C(=O)O)NC(=O)c2csc([C@@H](C[C@H](C(C)C)N(CCCCC#C)C(=O)[C@@H](NC(=O)[C@H]3CCCCN3C)[C@@H](C)CC)OC(C)=O)n2)cc([2H])c1N"
measured_number = 211


List the reported IC50 of each molecule below.
1. C#CCCCCN(C(=O)[C@@H](NC(=O)[C@H]1CCCCN1C)[C@@H](C)CC)[C@H](C[C@@H](OC(C)=O)c1nc(C(=O)N[C@@H](Cc2ccc(O)cc2)C[C@H](C)C(=O)O)cs1)C(C)C
2. C#CCCCON(C(=O)[C@@H](NC(=O)[C@H]1CCCCN1C)[C@@H](C)CC)[C@H](C[C@@H](OC(C)=O)c1nc(C(=O)N[C@@H](Cc2ccc(N)cc2)CC(C)(C)C(=O)O)cs1)C(C)C

Result:
1. 1550
2. 559
